Measured growth, listed per entry.
tested on: COLO 205 colon; experiment: NCI-60 one-dose screen, 48 h (100 = growth as untreated, 0 = no growth, -100 = all killed); details: 10 µM unless noted
The panel holds about 83,000 compounds, 20% with a hit somewhere; the sample as a whole holds those more often.
// note: answer is a bare numeric in %

Sample records with growth:
| compound | value kind | test value |
| --- | --- | --- |
| Oc1ccc(CCC2CCNc3ccccc32)cc1 (stereo unspecified) | growth | 93.4 |
| Oc1cc2ccccc2c(-c2c(O)c(O)cc3ccccc23)c1O | growth | 58.1 |
| O=C1C=C(c2ccccc2)C(O)(c2ccccc2)C1 (stereo unspecified) | growth | 104 |

Identify the reported growth for the following entry. `OC(CCN1CCCCC1)(c1ccccc1)c1ccccc1` 103

Identify the reported growth for the following entry. `CC(=O)c1cccc(O)c1` 110

Identify the reported growth for the following entry. `O=S1(=O)c2ccccc2Oc2ccccc21` 109

Identify the reported growth for the following entry. `COc1cccc(C(=O)NNC(=O)c2cccc3ccccc23)c1` 108

Identify the reported growth for the following entry. `O=C(Nc1cccc(Cl)c1)c1ccc(Cl)cc1Cl` 101

Identify the reported growth for the following entry. `CCC(/C=C\C(C)=O)CC` 107

Identify the reported growth for the following entry. `N#C/C(=C\NC(=S)N=Nc1c(O)[nH]c2ccccc12)c1nc2ccccc2s1` 106

Identify the reported growth for the following entry. NNC(=O)N/N=C1\C(=O)N(c2nccs2)C(=O)C(=O)C1c1nc2ccccc2s1 (stereo unspecified) 98.6

Identify the reported growth for the following entry. `CSc1nsc(N)n1` 99.4

Identify the reported growth for the following entry. CC(C)(C)[Si](C)(C)OCC1OC(n2cnc3c(N)ncnc32)CC1OS(C)(=O)=O (stereo unspecified) 110
